molecular target: VIM-1 (Pseudomonas aeruginosa (strain ATCC 15692 / DSM 22644 / CIP 104116 / JCM 14847 / LMG 12228 / 1C / PRS 101 / PAO1), UniProt A0A0F7KYQ8); experiment: biochemical; conditions: fluorescence assay, CCF2-FA substrate, 30 pM enzyme, 2 hours at 25° C.; read-out: VIM-1 IC50
Consider the cut-off 0.2 nM. If the recorded IC50 is strictly smaller, the label is class 1; if not, the label is class 0.

Use the examples below as a reference point.
compound="CN(C)C1CCN(S(=O)(=O)c2ccc(-c3cccc4sc(N)nc34)c(-c3nnn[nH]3)c2S(N)(=O)=O)CC1 [Example 26]" class_label="class 0"
compound="Nc1nc2c(-c3ccc(S(=O)(=O)NC[C@@]4(N)CCNC4)c(S(N)(=O)=O)c3-c3nn[nH]n3)cccc2[nH]1 [Example 251]" class_label="class 1"
compound="Nc1nc2c(-c3ccc(S(N)(=O)=O)c(S(N)(=O)=O)c3-c3nn[nH]n3)cccc2s1 [Example 143]" class_label="class 0"

Incoming: In the record for NC[C@H](N)CNS(=O)(=O)c1ccc(-c2ccc(N)nc2)c(-c2nn[nH]n2)c1S(N)(=O)=O [Example 415] , is IC50 less than 0.2 nM?
Outgoing: class 0

Incoming: In the record for Nc1ccc(-c2ccc(S(=O)(=O)N3CCNCC3)c(S(N)(=O)=O)c2-c2nn[nH]n2)cn1 [Example 485] , is IC50 less than 0.2 nM?
Outgoing: class 0

Incoming: In the record for NC(=O)[C@@H](N)CNS(=O)(=O)c1ccc(-c2cccc3[nH]c(N)nc23)c(-c2nn[nH]n2)c1S(N)(=O)=O [Example 189] , is IC50 less than 0.2 nM?
Outgoing: class 0

Incoming: In the record for NS(=O)(=O)c1ccc(-c2ccc(S(=O)(=O)N[C@@H]3CCNC3)c(S(N)(=O)=O)c2-c2nnn[nH]2)cc1 [Example 135] , is IC50 less than 0.2 nM?
Outgoing: class 1

Incoming: In the record for NS(=O)(=O)c1c(S(=O)(=O)N2CCNCC2)ccc(-c2cccc3cn[nH]c23)c1-c1nnn[nH]1 [Example 160] , is IC50 less than 0.2 nM?
Outgoing: class 0

Incoming: In the record for CNCCCN(C)S(=O)(=O)c1ccc(-c2cccc3sc(N)nc23)c(-c2nnn[nH]2)c1S(N)(=O)=O.O=C(O)C(F)(F)F [Example 93, 2,2,2-trifluoroacetate] , is IC50 less than 0.2 nM?
Outgoing: class 0

Incoming: In the record for N[C@@H](CO)CNS(=O)(=O)c1ccc(-c2cccc(C3N=CN=N3)c2)c(-c2nn[nH]n2)c1S(N)(=O)=O (stereo partly shown) [Example 226] , is IC50 less than 0.2 nM?
Outgoing: class 0

----------
target: NDM-1 (Klebsiella pneumoniae, UniProt C7C422); assay: biochemical; assay type: biochemical; conditions: fluorescence assay, CCF2-FA substrate, 1 pM enzyme, 2 hours at 25° C.; read-out: NDM-1 IC50
Sequence (C7C422 whole entry, looked up, species assumed): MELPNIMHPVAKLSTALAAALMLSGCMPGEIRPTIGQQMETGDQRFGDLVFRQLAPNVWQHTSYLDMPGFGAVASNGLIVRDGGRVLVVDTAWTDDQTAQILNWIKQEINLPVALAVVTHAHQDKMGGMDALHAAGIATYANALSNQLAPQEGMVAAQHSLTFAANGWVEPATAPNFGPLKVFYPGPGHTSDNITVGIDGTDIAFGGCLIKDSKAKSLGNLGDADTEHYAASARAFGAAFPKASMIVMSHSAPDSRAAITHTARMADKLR
The reader will find reported IC50 values listed item by item below.
Return type: number; implicit unit nM.

The following molecules have reported results that may help.
molecule="Nc1ccc(-c2ccc(S(=O)(=O)NCC3(O)CCNCC3)c(S(N)(=O)=O)c2-c2nn[nH]n2)cn1 [Example 492]" assay_result=0.305
molecule="Nc1nc2c(-c3ccc(S(=O)(=O)N[C@@H]4CCNC4)c(S(N)(=O)=O)c3-c3nn[nH]n3)cccc2[nH]1 [Example 161]" assay_result=0.0314
molecule="Cc1ccc(-c2ccc(S(N)(=O)=O)c(S(N)(=O)=O)c2-c2nn[nH]n2)c2nc(N)sc12 [Example 6]" assay_result=0.0269
molecule="Nc1nc2c(-c3ccc(S(=O)(=O)NCCN4CCNC(=O)C4)c(S(N)(=O)=O)c3-c3nnn[nH]3)cccc2s1 [Example 15]" assay_result=0.0926
molecule="NCCNC(=O)c1cccc(-c2ccc(S(=O)(=O)NCCN)c(S(N)(=O)=O)c2-c2nn[nH]n2)c1 [Example 334]" assay_result=1.32

Tested on NDM-1 (Klebsiella pneumoniae, UniProt C7C422): Nc1ccc(-c2ccc(S(=O)(=O)N3CCNCC3)c(S(N)(=O)=O)c2-c2nn[nH]n2)cn1 [Example 485] . Observed IC50: 2.22

Tested on NDM-1 (Klebsiella pneumoniae, UniProt C7C422): Nc1nc2c(-c3ccc(S(=O)(=O)N[C@@H]4CN[C@H](CO)C4)c(S(N)(=O)=O)c3-c3nnn[nH]3)cccc2[nH]1 [Example 175] . Observed IC50: 0.127

Tested on NDM-1 (Klebsiella pneumoniae, UniProt C7C422): Nc1ncc(-c2cccc(-c3ccc(S(=O)(=O)N[C@@H]4CCNC4)c(S(N)(=O)=O)c3-c3nnn[nH]3)n2)[nH]1 [Example 439] . Observed IC50: 0.254

Tested on NDM-1 (Klebsiella pneumoniae, UniProt C7C422): NCC(CN)NS(=O)(=O)c1ccc(-c2cccn3ccnc23)c(-c2nn[nH]n2)c1S(N)(=O)=O [Example 386] . Observed IC50: 0.133

Tested on NDM-1 (Klebsiella pneumoniae, UniProt C7C422): CNc1ccc(-c2ccc(S(=O)(=O)N[C@@H]3CCNC3)c(S(N)(=O)=O)c2-c2nn[nH]n2)cn1 [Example 242] . Observed IC50: 0.0611

Tested on NDM-1 (Klebsiella pneumoniae, UniProt C7C422): C[C@H](CN)NS(=O)(=O)c1ccc(-c2cccc3[nH]nnc23)c(-c2nn[nH]n2)c1S(N)(=O)=O [Example 237] . Observed IC50: 0.0134

Tested on NDM-1 (Klebsiella pneumoniae, UniProt C7C422): Nc1nc2c(-c3ccc(S(=O)(=O)N[C@]4(CO)CCNC4)c(S(N)(=O)=O)c3-c3nnn[nH]3)cccc2[nH]1 [Example 177] . Observed IC50: 0.0669

Tested on NDM-1 (Klebsiella pneumoniae, UniProt C7C422): Nc1nc2c(-c3ccc(S(=O)(=O)NC4CNC[C@H]4N)c(S(N)(=O)=O)c3-c3nn[nH]n3)cccc2[nH]1 (stereo in doubt) [Example 322] . Observed IC50: 0.0536

Tested on NDM-1 (Klebsiella pneumoniae, UniProt C7C422): CCOC(=O)c1sc(N)nc1-c1cccc(-c2ccc(S(=O)(=O)NC(CN)CN)c(S(N)(=O)=O)c2-c2nnn[nH]2)c1 [Example 431] . Observed IC50: 0.0739

Tested on NDM-1 (Klebsiella pneumoniae, UniProt C7C422): CC(C)(CN)NS(=O)(=O)c1ccc(-c2cccnc2N)c(-c2nn[nH]n2)c1S(N)(=O)=O [Example 211] . Observed IC50: 0.156

Tested on NDM-1 (Klebsiella pneumoniae, UniProt C7C422): NCCNS(=O)(=O)c1ccc(-c2cccc3sc(N)nc23)c(-c2nn[nH]n2)c1S(N)(=O)=O [Example 145] . Observed IC50: 0.0343

Tested on NDM-1 (Klebsiella pneumoniae, UniProt C7C422): Nc1ncccc1-c1ccc(S(=O)(=O)NC[C@H]2CNCCN2)c(S(N)(=O)=O)c1-c1nn[nH]n1 [Example 316] . Observed IC50: 0.175

Tested on NDM-1 (Klebsiella pneumoniae, UniProt C7C422): NCCNc1ncccc1-c1ccc(S(=O)(=O)N[C@@H]2CCNC2)c(S(N)(=O)=O)c1-c1nn[nH]n1 [Example 459] . Observed IC50: 1.17

Tested on NDM-1 (Klebsiella pneumoniae, UniProt C7C422): NCc1nc2cc(-c3ccc(S(=O)(=O)N[C@@H](CN)CO)c(S(N)(=O)=O)c3-c3nn[nH]n3)ccc2s1 [Example 475] . Observed IC50: 0.0604

Values compiled from patent US10221163B2.
